- experimental-protocol: Pharmacokinetic analysis in mice
- Format: in vivo, mouse
- conditions-used: male, C57BL/6NCRL, mouse, brain, po, 10 mg/kg, Brain; PO 10.0 (mg eq./kg); read-out: Observed Tmax

compound-string | Tmax
CN1C(=O)c2nc(Cc3ccc(C(F)(F)F)cc3)[nH]c2N2C1=N[C@H]1CCC[C@H]12 | 2 h

====

- experimental-protocol: Pharmacokinetic analysis in mice
- Assay type: in vivo, mouse
- conditions-used: male, C57BL/6NCRL, mouse, plasma; 10 mg/kg po in mice; read-out: plasma Cmax exposure
readout: Cmax (nM)

compound-string | scale-unit | assay-value
CN1C(=O)c2nc(Cc3ccc(C(F)(F)F)cc3)[nH]c2N2C1=N[C@H]1CCC[C@H]12 | nM | 2400
